Test system: EGFR (human), P00533 [747-751 del / S ins]
Sequence (P00533 whole entry, looked up, stated change not applied): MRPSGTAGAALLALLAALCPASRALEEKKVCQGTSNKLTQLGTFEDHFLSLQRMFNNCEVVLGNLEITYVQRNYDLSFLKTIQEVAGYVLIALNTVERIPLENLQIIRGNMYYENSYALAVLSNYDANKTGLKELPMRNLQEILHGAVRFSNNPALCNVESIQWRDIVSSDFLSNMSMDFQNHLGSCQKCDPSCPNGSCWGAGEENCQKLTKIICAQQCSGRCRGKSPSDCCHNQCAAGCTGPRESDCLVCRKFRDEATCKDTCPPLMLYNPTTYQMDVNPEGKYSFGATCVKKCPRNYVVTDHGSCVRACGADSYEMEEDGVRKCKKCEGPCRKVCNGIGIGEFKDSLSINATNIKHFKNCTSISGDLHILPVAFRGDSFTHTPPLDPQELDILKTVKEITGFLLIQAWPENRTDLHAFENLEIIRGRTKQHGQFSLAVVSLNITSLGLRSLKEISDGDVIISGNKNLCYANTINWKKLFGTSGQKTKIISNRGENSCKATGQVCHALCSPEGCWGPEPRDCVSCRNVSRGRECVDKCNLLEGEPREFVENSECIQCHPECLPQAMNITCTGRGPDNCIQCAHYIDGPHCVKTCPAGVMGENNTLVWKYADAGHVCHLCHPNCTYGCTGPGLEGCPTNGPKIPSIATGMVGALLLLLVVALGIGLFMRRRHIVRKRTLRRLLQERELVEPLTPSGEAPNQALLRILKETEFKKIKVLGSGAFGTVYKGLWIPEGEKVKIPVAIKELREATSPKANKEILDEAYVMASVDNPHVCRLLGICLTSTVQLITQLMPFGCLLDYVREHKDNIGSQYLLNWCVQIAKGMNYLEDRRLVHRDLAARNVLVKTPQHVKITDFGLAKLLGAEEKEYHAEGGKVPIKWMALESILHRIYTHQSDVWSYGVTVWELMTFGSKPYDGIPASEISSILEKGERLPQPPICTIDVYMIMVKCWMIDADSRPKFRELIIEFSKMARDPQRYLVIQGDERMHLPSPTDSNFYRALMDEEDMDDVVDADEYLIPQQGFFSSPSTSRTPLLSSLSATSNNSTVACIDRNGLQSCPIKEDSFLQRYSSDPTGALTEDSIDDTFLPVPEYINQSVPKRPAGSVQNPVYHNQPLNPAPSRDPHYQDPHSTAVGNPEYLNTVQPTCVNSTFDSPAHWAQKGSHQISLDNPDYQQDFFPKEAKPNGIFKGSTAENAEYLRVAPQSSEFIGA
measurement_description: KINOMEscan competition binding
condition_label: compound 10.0 µM
Catalogue of molecules with associated kinase still bound, per cent of control
measured_attribute: kinase still bound, per cent of control (%)

{"molecule": "CCC(=O)N1CCN(c2ccc(-n3c(=O)ccc4cnc5ccc(-c6cnc7ccccc7c6)cc5c43)cc2C(F)(F)F)CC1", "result": 80}
{"molecule": "CN(C)C/C=C/C(=O)Nc1ccc(C(=O)Nc2cccc(Nc3nccc(-c4cccnc4)n3)c2)cc1", "result": 87}
{"molecule": "COc1cc(N2CCC(C(N)=O)CC2)ccc1Nc1nc(N)c(Cl)c(Nc2ccccc2S(=O)(=O)C(C)C)n1", "result": 0.75}
{"molecule": "CS(=O)(=O)N1CCN(Cc2cc3nc(-c4cccc5[nH]ncc45)nc(N4CCOCC4)c3s2)CC1", "result": 100}
{"molecule": "CCCS(=O)(=O)Nc1ccc(F)c(C(=O)c2c[nH]c3ncc(-c4ccc(Cl)cc4)cc23)c1F", "result": 78}
{"molecule": "O=c1cc(N2CCOCC2)oc2c(-c3cccc4c3sc3ccccc34)cccc12", "result": 100}
{"molecule": "O=C(NOC[C@H](O)CO)c1ccc(F)c(F)c1Nc1ccc(I)cc1F", "result": 51}
{"molecule": "C=CC(=O)Nc1cccc(Nc2nc(N[C@H]3CC[C@H](N(C)C)CC3)nc3c2ncn3C(C)C)c1", "result": 90}
{"molecule": "NC(=O)Nc1cc(-c2cccc(F)c2)sc1C(=O)N[C@@H]1CCCNC1", "result": 2.4}
{"molecule": "O=C(Nc1cccc(Nc2ncc(Br)c(NCCc3cnc[nH]3)n2)c1)N1CCCC1", "result": 67}
{"molecule": "COc1cc(C)c(Sc2cnc(NC(=O)c3ccc(CNC(C)C(C)C)cc3)s2)cc1C(=O)N1CCN(C(C)=O)CC1 (centres undefined)", "result": 100}
{"molecule": "COc1cc(N2CCN(C)CC2)ccc1Nc1nc(N)c(C(=O)c2c(Cl)cccc2Cl)s1", "result": 91}
{"molecule": "CN(C)C/C=C/C(=O)Nc1cccc(Nc2ncc3c(n2)N(C)c2ccccc2C(=O)N3C)c1", "result": 77}
{"molecule": "COc1cc2ncnc(-n3nc(-c4ccccn4)nc3N)c2cc1OC", "result": 77}
{"molecule": "CCN1CCN(C(=O)Cc2ccc(Nc3ncc(F)c(Nc4ccc(C(=O)Nc5ccccc5Cl)cc4)n3)cc2)CC1", "result": 47}
{"molecule": "O=C1Nc2ccc(I)cc2/C1=C/c1cc(Br)c(O)c(Br)c1", "result": 50}
{"molecule": "C=CC(=O)Nc1ccc(C(=O)c2sc(Nc3ccc(N4CCN(C)CC4)cc3OC)nc2N)cc1", "result": 41}
{"molecule": "Cc1ccc(NC(=O)c2cccc(C(C)(C)C#N)c2)cc1Nc1ccc2ncn(C)c(=O)c2c1", "result": 14}
{"molecule": "COc1cc(N2CCN(C)CC2)ccc1Nc1ncc2c(n1)N(C)c1ccccc1C(=O)N2C", "result": 100}
